Values from patent US20110262446A1

# Experimental target: IGF-II (amino acids 1-67) (human, UniProt P01344 25-91)
# Sequence (P01344 25-91): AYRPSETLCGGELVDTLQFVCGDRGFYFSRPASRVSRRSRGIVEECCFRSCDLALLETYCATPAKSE
# Assay protocol: cell-based or functional assay
Parameter: IC50, IGF-II stimulated BA/F3 cell proliferation (MTS) (µg/mL)
Reply with just the number (in µg/mL).

[Q] Quick one: IC50, IGF-II stimulated BA/F3 cell proliferation (MTS) for M0072-C06 Fab (Fab, V domains shown, Soluble Fab from phage display; Often printed as M0072-006; also called M0072-006; M0072-C06(R0032-A09)) VH: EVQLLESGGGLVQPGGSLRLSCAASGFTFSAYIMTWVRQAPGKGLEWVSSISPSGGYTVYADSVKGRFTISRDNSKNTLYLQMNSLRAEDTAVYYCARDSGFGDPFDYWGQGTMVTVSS VL: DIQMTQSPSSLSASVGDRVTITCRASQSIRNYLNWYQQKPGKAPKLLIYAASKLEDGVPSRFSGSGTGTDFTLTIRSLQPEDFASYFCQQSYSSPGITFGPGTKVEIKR ?
[A] 5.12
